This section presents molecules with their documented IC50 values.
# TEST SYSTEM: NAMPT (human, recombinant, C-terminally His-tagged) (Homo sapiens, UniProt P43490)
# Sequence (P43490 whole entry): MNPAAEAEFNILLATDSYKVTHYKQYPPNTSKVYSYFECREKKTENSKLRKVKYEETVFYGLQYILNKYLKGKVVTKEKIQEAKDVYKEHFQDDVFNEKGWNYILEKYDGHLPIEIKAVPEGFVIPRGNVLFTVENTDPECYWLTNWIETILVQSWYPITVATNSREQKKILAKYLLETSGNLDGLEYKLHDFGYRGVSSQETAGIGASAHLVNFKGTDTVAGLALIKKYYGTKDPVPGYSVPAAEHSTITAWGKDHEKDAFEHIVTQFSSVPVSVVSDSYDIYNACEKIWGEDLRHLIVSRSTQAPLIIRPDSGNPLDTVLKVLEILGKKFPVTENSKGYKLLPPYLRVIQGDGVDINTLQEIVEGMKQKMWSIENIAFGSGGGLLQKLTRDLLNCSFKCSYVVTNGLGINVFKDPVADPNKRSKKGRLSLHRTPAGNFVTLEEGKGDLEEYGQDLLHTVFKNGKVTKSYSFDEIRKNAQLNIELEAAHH
# METHOD DESCRIPTION: Time-Resolved Fluorescence Resonance Energy Transfer (TR-FRET) Binding Assay of NAMPT
# SETUP CONDITIONS: absence of substrates; 6.8 nM NAMPT, 200 nM probe, equilibrated 3 hours
Just the number please, in µM, no unit attached.

COCCCN(C(=O)CCOC)c1ncc(C(=O)NCCCn2ccnc2)s1 ... 7.36
COCCC(=O)N(CCc1cccc(Cl)c1)c1ncc(C(=O)NCCCn2ccnc2)s1 ... 1.93
O=C(NCCCn1ccnc1)c1cnc(N(Cc2ccc(F)cc2)Cc2ccc(-c3cccnc3)cc2)s1 ... 0.0638

Consider now this further molecule.
input: What value of measured IC50 is listed for O=C(NCCCn1ccnc1)c1cnc(N(CCCN2CCOCC2)Cc2ccc(F)cc2)s1 ?
output: 1.61

* * *

# TEST SYSTEM: NAMPT (human, recombinant, C-terminally His-tagged) (Homo sapiens, UniProt P43490)
# METHOD DESCRIPTION: Time-Resolved Fluorescence Resonance Energy Transfer (TR-FRET) Binding Assay of NAMPT
# SETUP CONDITIONS: absence of substrates; 6.8 nM NAMPT, 200 nM probe, equilibrated 3 hours
MEASURED METRIC: pIC50
The read-out pIC50 is expressed as -log10 of concentration in moles per litre.

O=C(NCCCn1ccnc1)c1cnc(N(Cc2ccc(F)cc2)C(=O)CC2CCCCC2)s1 ... 6.14

input: // pIC50 lookup, key: CCN(CC)CCCN(C(=O)CCOC)c1ncc(C(=O)NCCCn2ccnc2)s1
output: 5.58

input: Need pIC50, item COCCC(=O)N(CCc1ccccc1F)c1ncc(C(=O)NCCCn2ccnc2)s1
output: 5.84

input: # get_value(readout='pIC50', item= O=C(NCCCn1ccnc1)c1cnc(N2CCN(c3ccc(F)cc3)C2=O)s1 )
output: 5.43

input: I am curious: what pIC50 value has been reported for CC(C)OCCNC(=O)N(Cc1ccc(C#N)cc1)c1ncc(C(=O)NCCCn2ccnc2)s1 ?
output: 5.42

input: I am curious: what pIC50 value has been reported for COCCN(C(=O)CCc1ccc(F)cc1)c1ncc(C(=O)NCCCn2ccnc2)s1 ?
output: 5.59

input: Give its pIC50 value. Item: CC(C)NC(=O)N(Cc1ccc(F)cc1)c1ncc(C(=O)NCCCn2ccnc2)s1
output: 5.02

input: Form field: reported pIC50 of CCCOCCNC(=O)N(Cc1ccc(F)cc1)c1ncc(C(=O)NCCCn2ccnc2)s1
output: 5.54

input: // lookup pIC50 for CC(C)CCN(Cc1cccc(F)c1)c1ncc(C(=O)NCCCn2ccnc2)s1
output: 5.22

input: Please give the measured pIC50 for this compound: CN(C)C1CCN(CC(=O)N(Cc2ccc(F)cc2)c2ncc(C(=O)NCCCn3ccnc3)s2)C1 (centres unmarked)
output: 5.62

* * *

IC50 overview
# TEST SYSTEM: NAMPT (human, recombinant, C-terminally His-tagged) (Homo sapiens, UniProt P43490)
# METHOD DESCRIPTION: Time-Resolved Fluorescence Resonance Energy Transfer (TR-FRET) Binding Assay of NAMPT
# SETUP CONDITIONS: absence of substrates; 6.8 nM NAMPT, 200 nM probe, equilibrated 3 hours

COCCC(=O)N(Cc1ccc(F)cc1)c1ncc(C(=O)NCCCn2ccnc2)s1 [Example 25] ... 1.63 µM
CN1CCN(CC(=O)N(Cc2ccc(F)cc2)c2ncc(C(=O)NCCCn3ccnc3)s2)CC1 [Example 30] ... > 10 µM
COCCC(=O)N(CC(=O)N1CCCC1)c1ncc(C(=O)NCCCn2ccnc2)s1 [Example 202] ... 4.99 µM

// next item, IC50 requested
input: Reported IC50 for O=C(NCCCn1ccnc1)c1cnc(N(Cc2ccc(F)cc2)Cc2ccc(Cl)cc2)s1 [Example 15] : what is it?
output: 3.82 µM
